Reported values of MIC99 for individual entries
Test system: Mycobacterium kansasii
Procedure text: Antimycobacterial activity against Mycobacterium kansasii 6509/96 after 21 days
Type: functional
Run parameters: 6509/96, 504 h
Dear colleague, please return just the value in µM, with no unit written.

Sample answers from the record:
>>> val("O=[N+]([O-])c1cc(CSc2nnc(-c3ccc(O)cc3)n2Cc2ccccc2)cc([N+](=O)[O-])c1")
16
>>> val("Cn1c(SCc2ccc(Br)cc2)nnc1-c1cc([N+](=O)[O-])cc([N+](=O)[O-])c1")
1
>>> val("Cc1ccc(-c2nnc(SCc3cc([N+](=O)[O-])cc([N+](=O)[O-])c3)n2Cc2ccccc2)cc1")
4

Fill in: Mycobacterium kansasii MIC99 for O=[N+]([O-])c1cc(-c2nnc(SCc3ccc(Br)cc3)n2Cc2ccccc2)cc(C(F)(F)F)c1 = 2
